Task for the reader: assign each of the following molecules its reported solubility.
Test: Solubility in simulated intestinal fluid
Type: physicochemical
Conditions: simulated intestinal fluid; read-out: Solubility
Numbers only; they are read as µg/mL.

[Q] Give its solubility value. Item: COc1cc2nccc(Oc3ccc4c(C(=O)NC(C)C)cccc4c3)c2cc1OC
[A] 5.6

[Q] Give its solubility value. Item: CNC(=O)N1CCOc2cc(Oc3ccnc4cc(OC)c(OC)cc34)ccc21
[A] 130

[Q] # lookup: solubility of COc1cc2nccc(Oc3ccc4c(c3)OCCN4C(=O)Nc3ccc(C)cc3)c2cc1OC
[A] 22

[Q] Name the recorded solubility for COc1cc2nccc(Oc3ccc4c(C(=O)Nc5ccc(Cl)cc5)cccc4c3)c2cc1OC .
[A] 1.4

[Q] Record request: solubility value, item COc1cc2nccc(Oc3ccc4c(C(=O)Nc5cccc(Cl)c5)cccc4c3)c2cc1OC
[A] 36

[Q] What value of measured solubility is listed for COc1cc2nccc(Oc3ccc4c(c3)OCCN4C(=O)Nc3cccc(Cl)c3)c2cc1OC ?
[A] 28

[Q] I would be grateful if you could share the reported solubility for CNC(=O)c1cccc2cc(Oc3ccnc4cc(OC)c(OC)cc34)ccc12 .
[A] 3

[Q] I'd like to know its solubility. The molecule in question is COc1cc2nccc(Oc3ccc4c(c3)OCCN4C(=O)NC(C)C)c2cc1OC
[A] 14

[Q] # lookup: solubility of COc1cc2nccc(Oc3ccc4c(C(=O)Nc5ccc(C)cc5)cccc4c3)c2cc1OC
[A] 9.4

[Q] Item COc1cc2nccc(Oc3ccc4c(C(=O)Nc5ccc(F)cc5)cccc4c3)c2cc1OC has what recorded solubility?
[A] 1.3

[Q] What value of solubility has been reported for the following molecule? COc1cc2nccc(Oc3ccc4c(c3)OCCN4C(=O)Nc3ccc(F)cc3)c2cc1OC
[A] 41

---

So I've got a bunch of molecules here, and I need their IC50 values.
Target: Angiopoietin-1 receptor (Homo sapiens)
Sequence (Q02763 whole entry): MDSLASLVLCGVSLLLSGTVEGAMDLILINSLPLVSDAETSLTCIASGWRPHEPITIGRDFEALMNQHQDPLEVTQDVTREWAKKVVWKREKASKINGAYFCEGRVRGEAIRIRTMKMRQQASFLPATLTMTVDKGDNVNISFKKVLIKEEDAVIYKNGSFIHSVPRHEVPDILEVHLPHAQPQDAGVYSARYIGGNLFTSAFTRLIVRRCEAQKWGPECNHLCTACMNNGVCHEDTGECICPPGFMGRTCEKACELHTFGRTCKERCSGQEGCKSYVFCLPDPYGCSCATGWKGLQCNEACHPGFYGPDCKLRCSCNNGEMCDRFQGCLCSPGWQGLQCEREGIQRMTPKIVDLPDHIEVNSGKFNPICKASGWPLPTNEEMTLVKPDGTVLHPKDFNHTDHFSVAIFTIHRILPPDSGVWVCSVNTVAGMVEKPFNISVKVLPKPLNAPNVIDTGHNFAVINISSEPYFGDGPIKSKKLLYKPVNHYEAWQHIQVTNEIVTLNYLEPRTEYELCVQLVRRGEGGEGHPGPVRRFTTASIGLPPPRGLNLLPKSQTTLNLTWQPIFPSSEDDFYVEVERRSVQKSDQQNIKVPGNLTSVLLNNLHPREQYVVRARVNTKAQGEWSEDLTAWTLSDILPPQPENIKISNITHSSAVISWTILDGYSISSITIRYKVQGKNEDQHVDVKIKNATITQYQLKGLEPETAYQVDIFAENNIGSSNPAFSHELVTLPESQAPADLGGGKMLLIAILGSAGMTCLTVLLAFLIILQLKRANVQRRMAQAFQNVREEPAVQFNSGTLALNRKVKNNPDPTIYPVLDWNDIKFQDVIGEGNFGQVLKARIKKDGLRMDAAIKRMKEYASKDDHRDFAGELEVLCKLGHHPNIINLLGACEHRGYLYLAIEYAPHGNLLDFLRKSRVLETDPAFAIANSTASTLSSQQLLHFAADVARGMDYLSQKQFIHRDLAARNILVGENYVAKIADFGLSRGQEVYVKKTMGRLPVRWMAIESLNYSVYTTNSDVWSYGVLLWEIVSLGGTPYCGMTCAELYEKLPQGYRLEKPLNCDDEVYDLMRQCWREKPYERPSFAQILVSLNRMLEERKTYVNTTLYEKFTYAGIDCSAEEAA
Lab book: enter the figure in nM, no units written.

[Q] Quick one: IC50 for COc1cc2nccc(Oc3ccc4c(c3)OCCN4C(=O)Nc3ccc(C)cc3)c2cc1C(N)=O ?
[A] 430

[Q] IC50 lookup needed for COc1cc2nccc(Oc3ccc4c(c3)OCCN4C(=O)Nc3ccc(C)cc3)c2cc1OC , thanks.
[A] 1000

[Q] Name the reported IC50 value associated with the molecule COc1cc2nccc(Oc3ccc4c(c3)OCCN4C(=O)Nc3cccc(Cl)c3)c2cc1OC
[A] 9

---

I'd appreciate it if you could supply microsomal CLint values for the items below.
Assay: Metabolic stability in human liver microsomes
Type: ADME, Microsome
Conditions: read-out: Stability
Could you give me the number in µL/min/mg? Just the number is fine.

[Q] Name the recorded microsomal CLint for COc1cc2nccc(Oc3ccc4c(c3)OCCN4C(=O)Nc3ccccc3)c2cc1OC .
[A] 62

[Q] Look up microsomal CLint for this compound: COc1cc2nccc(Oc3ccc4c(c3)OCCN4C(=O)Nc3ccc(C)cc3)c2cc1OC
[A] 31

[Q] Please look up its microsomal CLint: COc1cc2nccc(Oc3ccc4c(c3)OCCN4C(=O)N[C@@H](C)c3ccccc3)c2cc1OC
[A] 543

[Q] Name the recorded microsomal CLint for COc1cc2nccc(Oc3ccc4c(c3)OCCN4C(=O)Nc3ccc(C)cc3)c2cc1C(N)=O .
[A] 62

[Q] Bench note: what microsomal CLint did COc1cc2nccc(Oc3ccc4c(c3)OCCN4C(=O)Nc3ccc(Cl)cc3)c2cc1C(N)=O show?
[A] 48

[Q] Any idea what its microsomal CLint is? The compound is COc1cc2nccc(Oc3ccc4c(c3)OCCN4C(=O)Nc3ccc(F)cc3)c2cc1OC
[A] 17

---

Assay: Oral bioavailability in Sprague-Dawley rat at 2 mg/kg, po
Type: ADME, organism-based
Settings: in vivo
Please respond with reported bioavailability for every item in the list.
Provide the reading as a plain figure in %.

[Q] Which value of bioavailability has been reported for COc1cc2nccc(Oc3ccc4c(c3)OCCN4C(=O)Nc3ccc(C)cc3)c2cc1C(N)=O in the records?
[A] 28

[Q] I'd like to know its bioavailability. The compound in question is COc1cc2nccc(Oc3ccc4c(c3)OCCN4C(=O)Nc3ccc(C)cc3)c2cc1OC
[A] 47

[Q] If you can, please state the reported bioavailability value of COc1cc2nccc(Oc3ccc4c(c3)OCCN4C(=O)Nc3ccc(Cl)cc3)c2cc1C(N)=O .
[A] 46

[Q] Any idea what its bioavailability is? The compound is COc1cc2nccc(Oc3ccc4c(c3)OCCN4C(=O)Nc3ccc(F)cc3)c2cc1OC
[A] 81

[Q] // query bioavailability value for entry COc1cc2nccc(Oc3ccc4c(c3)OCCN4C(=O)Nc3ccc(Cl)cc3)c2cc1OC
[A] 95

---

For each of the compounds below, state its solubility.
Assay: Solubility in PBS at pH 7
Assay type: physicochemical

[Q] Dear colleague, I am looking for the recorded solubility of the following compound: COc1cc2nccc(Oc3ccc4c(c3)OCCN4C(=O)Nc3ccc(F)cc3)c2cc1OC
[A] 3.3 µg/mL

[Q] # input compound: COc1cc2nccc(Oc3ccc4c(c3)OCCN4C(=O)Nc3ccc(C)cc3)c2cc1OC ; wanted: its solubility
[A] < 1 µg/mL

[Q] Item under review: COc1cc2nccc(Oc3ccc4c(c3)OCCN4C(=O)Nc3cccc(Cl)c3)c2cc1OC . Reported solubility?
[A] < 1 µg/mL

[Q] I am curious: what solubility value has been reported for COc1cc2nccc(Oc3ccc4c(C(=O)Nc5cccc(Cl)c5)cccc4c3)c2cc1OC ?
[A] < 1 µg/mL

[Q] Would you kindly share the measured solubility for COc1cc2nccc(Oc3ccc4c(C(=O)Nc5ccc(F)cc5)cccc4c3)c2cc1OC ?
[A] < 1 µg/mL

[Q] Please look up its solubility: CNC(=O)c1cccc2cc(Oc3ccnc4cc(OC)c(OC)cc34)ccc12
[A] 1.4 µg/mL

[Q] Could you share which solubility value was measured for COc1cc2nccc(Oc3ccc4c(C(=O)NC(C)C)cccc4c3)c2cc1OC ?
[A] < 1 µg/mL

[Q] Look at this compound and give its reported solubility. CNC(=O)N1CCOc2cc(Oc3ccnc4cc(OC)c(OC)cc34)ccc21
[A] 46 µg/mL

[Q] Consider the compound shown here: COc1cc2nccc(Oc3ccc4c(C(=O)Nc5ccc(C)cc5)cccc4c3)c2cc1OC What is its recorded solubility?
[A] < 1 µg/mL

[Q] Can you share its solubility? I mean this compound: COc1cc2nccc(Oc3ccc4c(c3)OCCN4C(=O)NC(C)C)c2cc1OC
[A] 3 µg/mL

[Q] What value of measured solubility is listed for COc1cc2nccc(Oc3ccc4c(C(=O)Nc5ccc(Cl)cc5)cccc4c3)c2cc1OC ?
[A] < 1 µg/mL

---

Provide the recorded pIC50 for the entries that follow.
Target: Tyrosine-protein kinase Lck (Homo sapiens, UniProt P06239)
Sequence (P06239 whole entry): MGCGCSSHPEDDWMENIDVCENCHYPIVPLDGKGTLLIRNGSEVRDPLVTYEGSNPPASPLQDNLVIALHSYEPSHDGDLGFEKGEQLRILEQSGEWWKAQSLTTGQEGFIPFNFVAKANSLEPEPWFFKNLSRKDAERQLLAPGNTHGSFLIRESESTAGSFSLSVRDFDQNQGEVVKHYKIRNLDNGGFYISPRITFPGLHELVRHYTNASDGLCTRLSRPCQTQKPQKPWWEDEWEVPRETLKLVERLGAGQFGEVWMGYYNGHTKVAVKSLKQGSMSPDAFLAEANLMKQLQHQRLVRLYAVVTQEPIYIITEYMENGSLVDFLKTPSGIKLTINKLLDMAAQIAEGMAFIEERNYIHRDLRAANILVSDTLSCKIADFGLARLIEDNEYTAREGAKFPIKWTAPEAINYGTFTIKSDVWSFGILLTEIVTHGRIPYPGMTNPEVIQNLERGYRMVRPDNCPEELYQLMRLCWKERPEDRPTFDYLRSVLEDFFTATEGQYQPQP
Assay: Inhibition of Lck
For clarity, pIC50 is expressed as the negative log10 of concentration in mol/L.

[Q] Give its pIC50 value. Item: COc1cc2nccc(Oc3ccc4c(c3)OCCN4C(=O)Nc3ccc(C)cc3)c2cc1C(N)=O
[A] 7.72

[Q] Recorded pIC50 for CCNC(=O)N1CCOc2cc(Oc3ccnc4cc(OC)c(OC)cc34)ccc21 , please?
[A] 5.82

[Q] # input compound: COc1cc2nccc(Oc3ccc4c(c3)OCCN4C(=O)Nc3ccc(C)cc3)c2cc1OC ; wanted: its pIC50
[A] 7.20

[Q] Dear colleague, I am looking for the recorded pIC50 of the following compound: COc1cc2nccc(Oc3ccc4c(c3)OCCN4C(=O)Nc3ccc(Cl)cc3)c2cc1C(N)=O
[A] 7.68

---

System: HUVEC
Experiment: Inhibition of FGF-induced proliferation of HUVEC cells
Assay type: functional, cell-based
Conditions: Homo sapiens
MEASURED_PARAMETER: IC50 (µM)
The reply should be a number in µM, with the unit left off.

[Q] Notebook entry, HUVEC assay: IC50 of COc1cc2nccc(Oc3ccc4c(c3)OCCN4C(N)=O)c2cc1OC = ?
[A] 1.1

[Q] Entry COc1cc2nccc(Oc3ccc4c(c3)OCCN4C(=O)Nc3cccc(C)c3)c2cc1OC , system HUVEC: what IC50 was measured?
[A] 0.19

[Q] Find the measured IC50: item COc1cc2nccc(Oc3ccc4c(c3)OCCN4C(=O)Nc3ccccc3)c2cc1OC , target or system HUVEC.
[A] 0.34

[Q] Reported IC50 for HUVEC, given COc1cc2nccc(Oc3ccc4c(c3)OCCN4C(=O)Nc3ccc(F)cc3)c2cc1OC ?
[A] 0.3

[Q] Tell me reported IC50 for COc1cc2nccc(Oc3ccc4c(c3)OCCN4C(=O)Nc3ccccc3C)c2cc1OC , tested with HUVEC.
[A] 0.91

[Q] Find IC50 (HUVEC) for the entry COc1cc2nccc(Oc3ccc4c(c3)OCCN4C(=O)Nc3ccccc3Cl)c2cc1OC
[A] 0.23

[Q] Please tell me: IC50 of COc1cc2nccc(Oc3ccc4c(c3)OCCN4C(=O)Nc3cccc(Cl)c3)c2cc1OC , system HUVEC?
[A] 0.22

[Q] Report IC50 for CNC(=O)N1CCOc2cc(Oc3ccnc4cc(OC)c(OC)cc34)ccc21 tested on HUVEC.
[A] 0.37

[Q] Checklist item: IC50 tested on HUVEC, entry CCNC(=O)N1CCOc2cc(Oc3ccnc4cc(OC)c(OC)cc34)ccc21 , value?
[A] 0.78

[Q] Give HUVEC IC50 for COc1cc2nccc(Oc3ccc4c(c3)OCCN4C(=O)Nc3ccc(C)cc3)c2cc1C(N)=O
[A] 0.3

[Q] // fetch HUVEC IC50 for COc1cc2nccc(Oc3ccc4c(c3)OCCN4C(=O)NC(C)C)c2cc1OC
[A] 1.1

[Q] Form: Entry = COc1cc2nccc(Oc3ccc4c(c3)OCCN4C(=O)N[C@@H](C)c3ccccc3)c2cc1OC | System = HUVEC | IC50 = ____
[A] 0.3
